Tested on: CCD-1079Sk cells
Assay: Apoptosis assay (Annexin V/7-AAD, flow cytometry)
Format: cell-based
Conditions: sample at IC50 concentration, 24 h
Rule: cell % Necrotic, CCD-1079Sk below 3% gives true (1). Equal to or above 3% gives false (0).

query: Report whether reported cell % Necrotic, CCD-1079Sk is lower than 3% (strictly) for [O-]N=C1C(=NO)N(c2ccccc2)CN1c1ccccc1.[O-]N=C1C(=NO)N(c2ccccc2)CN1c1ccccc1.[Pt+2]
result: false (0)

query: Report whether reported cell % Necrotic, CCD-1079Sk is lower than 3% (strictly) for [O-]N=C1C(=NO)N(c2ccc(F)cc2F)CN1c1ccc(F)cc1F.[O-]N=C1C(=NO)N(c2ccc(F)cc2F)CN1c1ccc(F)cc1F.[Pt+2]
result: true (1)

query: Report whether reported cell % Necrotic, CCD-1079Sk is lower than 3% (strictly) for [O-]N=C1C(=NO)N(c2ccc(F)cc2)CN1c1ccc(F)cc1.[O-]N=C1C(=NO)N(c2ccc(F)cc2)CN1c1ccc(F)cc1.[Pt+2]
result: true (1)

query: Report whether reported cell % Necrotic, CCD-1079Sk is lower than 3% (strictly) for N.N.[Cl][Pt][Cl] [CisPt, cis-diamminedichloroplatinum(II), reference compound]
result: false (0)

More entries:
query: Report whether reported cell % Necrotic, CCD-1079Sk is lower than 3% (strictly) for O[N+]1=C2C(=[N+](O)[Pt-2]1([Cl])[Cl])N(c1ccc(F)cc1F)CN2c1ccc(F)cc1F
result: false (0)

---

Tested on: MCF-7 cells
Experiment: Apoptosis assay (Annexin V/7-AAD, flow cytometry)
Format: cell-based, human
Conditions: sample at IC50 concentration, 24 h
measuredAttribute: cell % Necrotic, MCF-7 (%)
Reply numerically in %, unit not repeated.

# annotated cases, reported cell % Necrotic, MCF-7 shown
query: Could you share which cell % Necrotic, MCF-7 value was measured for O[N+]1=C2C(=[N+](O)[Pt-2]1([Cl])[Cl])N(c1ccc(F)cc1)CN2c1ccc(F)cc1 ?
result: 0.95

query: Could you share which cell % Necrotic, MCF-7 value was measured for O[N+]1=C2C(=[N+](O)[Pt-2]1([Cl])[Cl])N(c1ccccc1)CN2c1ccccc1 ?
result: 5.45

query: Could you share which cell % Necrotic, MCF-7 value was measured for CC(O)(CS(=O)(=O)c1ccc(F)cc1)C(=O)Nc1ccc(C#N)c(C(F)(F)F)c1 (centres unmarked) [Bical, bicalutamide, reference compound] ?
result: 6.35

query: Could you share which cell % Necrotic, MCF-7 value was measured for [O-]N=C1C(=NO)N(c2ccccc2)CN1c1ccccc1.[O-]N=C1C(=NO)N(c2ccccc2)CN1c1ccccc1.[Pt+2] ?
result: 0.95

query: Could you share which cell % Necrotic, MCF-7 value was measured for [O-]N=C1C(=NO)N(c2ccc(F)cc2)CN1c1ccc(F)cc1.[O-]N=C1C(=NO)N(c2ccc(F)cc2)CN1c1ccc(F)cc1.[Pt+2] ?
result: 2.20

query: Could you share which cell % Necrotic, MCF-7 value was measured for N.N.[Cl][Pt][Cl] [CisPt, cis-diamminedichloroplatinum(II), reference compound] ?
result: 1.10

query: Could you share which cell % Necrotic, MCF-7 value was measured for O[N+]1=C2C(=[N+](O)[Pt-2]1([Cl])[Cl])N(c1ccc(F)cc1F)CN2c1ccc(F)cc1F ?
result: 3.40

More entries:
query: Could you share which cell % Necrotic, MCF-7 value was measured for [O-]N=C1C(=NO)N(c2ccc(F)cc2F)CN1c1ccc(F)cc1F.[O-]N=C1C(=NO)N(c2ccc(F)cc2F)CN1c1ccc(F)cc1F.[Pt+2] ?
result: 5.35
